src = ChEMBL document CHEMBL3124871

biological target: Thyroid hormone receptor beta (Homo sapiens); experiment: Agonist activity at human recombinant TRbeta1 transfected in CV-1 cells after 8 to 10 hrs by alkaline phosphatase reporter gene assay; format: cell-based
Sequence (P10828 whole entry): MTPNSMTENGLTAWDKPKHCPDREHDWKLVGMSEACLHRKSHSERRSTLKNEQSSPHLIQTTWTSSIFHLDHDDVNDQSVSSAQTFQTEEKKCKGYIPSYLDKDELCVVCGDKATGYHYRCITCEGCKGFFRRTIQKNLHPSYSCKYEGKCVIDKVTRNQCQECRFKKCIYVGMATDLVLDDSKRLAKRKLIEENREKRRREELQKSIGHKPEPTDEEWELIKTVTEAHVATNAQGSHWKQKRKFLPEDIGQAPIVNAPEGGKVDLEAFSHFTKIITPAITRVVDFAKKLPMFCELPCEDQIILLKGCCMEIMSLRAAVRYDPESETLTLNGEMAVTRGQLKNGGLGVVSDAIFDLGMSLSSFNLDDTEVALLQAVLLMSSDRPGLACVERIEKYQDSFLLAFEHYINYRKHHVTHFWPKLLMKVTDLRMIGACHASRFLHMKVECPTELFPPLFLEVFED
pEC50: −log10 of the molar value.
Label scheme for pEC50: lower than 6 is not fulfilled, 6 and above is fulfilled.

Past entries and their recorded results:
Cc1ccc(NC(=O)CC(=O)O)c2ccn(Cc3ccc(O)c(C(C)C)c3)c12; not fulfilled
Cc1c(CCC(=O)O)c2ccccc2n1Cc1ccc(O)c(C(C)C)c1; fulfilled
CC(C)c1cc(Cn2ccc3c(NC(=O)C(=O)O)cccc32)ccc1O; not fulfilled
Cc1ccc(NC(=O)C(=O)O)c2ccn(Cc3ccc(O)c(C(C)C)c3)c12; fulfilled

Query :: Would you say Cc1cc2c(NC(=O)C(=O)O)cccc2n1Cc1ccc(O)c(C(C)C)c1 shows pEC50 at minimum 6?
Result :: fulfilled

Query :: Would you say Cc1c(CCCCC(=O)O)c2ccccc2n1Cc1ccc(O)c(C(C)C)c1 shows pEC50 at minimum 6?
Result :: fulfilled

Query :: Would you say Cc1c(CC(=O)O)c2ccccc2n1Cc1ccc(O)c(C(C)C)c1 shows pEC50 at minimum 6?
Result :: fulfilled

Query :: Would you say Cc1c(CCCC(=O)O)c2ccccc2n1Cc1ccc(O)c(C(C)C)c1 shows pEC50 at minimum 6?
Result :: fulfilled

Query :: Would you say Cc1cc2c(NC(=O)CC(=O)O)cccc2n1Cc1ccc(O)c(C(C)C)c1 shows pEC50 at minimum 6?
Result :: not fulfilled

###

test system: HepG2; test: Selectivity ratio of EC50 for human recombinant transfected in human HepG2 cells to EC50 for human recombinant TRbeta1 transfected in human HepG2; type: cell-based
So basically, if Ratio EC50 comes in under 2 it's yes (1), and if it's 2 or more it's no (0).

Past entries and their recorded results:
CC(C)c1cc(Cn2ccc3c(NC(=O)C(=O)O)cccc32)ccc1O; no (0)
Cc1cc2c(NC(=O)CC(=O)O)cccc2n1Cc1ccc(O)c(C(C)C)c1; no (0)
Cc1cc2c(NC(=O)C(=O)O)cccc2n1Cc1ccc(O)c(C(C)C)c1; yes (1)
Cc1ccc(NC(=O)CC(=O)O)c2ccn(Cc3ccc(O)c(C(C)C)c3)c12; no (0)

# ---- query compound ----
Query :: Quick check: Ratio EC50 of Cc1ccc(NC(=O)C(=O)O)c2ccn(Cc3ccc(O)c(C(C)C)c3)c12 under 2?
Result :: no (0)
